Items are presented alongside their recorded Ki.
Target: Substance-P receptor (Homo sapiens, UniProt P25103)
Sequence (P25103 whole entry): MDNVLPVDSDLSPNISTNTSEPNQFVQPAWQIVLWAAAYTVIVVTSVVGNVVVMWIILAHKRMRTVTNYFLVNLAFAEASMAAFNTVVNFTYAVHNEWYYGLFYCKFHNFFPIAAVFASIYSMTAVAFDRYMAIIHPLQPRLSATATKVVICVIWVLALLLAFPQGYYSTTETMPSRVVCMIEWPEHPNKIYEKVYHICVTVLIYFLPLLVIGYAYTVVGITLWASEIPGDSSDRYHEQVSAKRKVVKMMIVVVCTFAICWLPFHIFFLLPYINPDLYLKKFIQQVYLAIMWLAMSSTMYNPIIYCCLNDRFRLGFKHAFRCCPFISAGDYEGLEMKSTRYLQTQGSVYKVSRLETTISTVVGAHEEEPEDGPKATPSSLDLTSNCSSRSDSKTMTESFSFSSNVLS
Test: Binding affinity against recombinant human tachykinin receptor 1 in CHO cells using [3H]-Sar SP as a radioligand

[
  {
    "MOLECULE": "CO/N=C(\\CN(C)C(=O)c1cc(Cl)cc(Cl)c1)C(CCN1CCC(N2CCCCC2=O)CC1)c1ccc(Cl)c(Cl)c1 (centres undefined)",
    "Ki, nM": 4.7
  },
  {
    "MOLECULE": "CN(C/C(=N\\OCCC[N+](C)(C)C)C(CCN1CCC(N2CCCCC2=O)CC1)c1ccc(Cl)c(Cl)c1)C(=O)c1cc(Cl)cc(Cl)c1 (centres undefined)",
    "Ki, nM": 1.8
  },
  {
    "MOLECULE": "N#CO/N=C(\\COCc1cc(C(F)(F)F)cc(C(F)(F)F)c1)C(CCN1CCC(O)(c2ccccc2)CC1)c1ccc(Cl)c(Cl)c1 (centres undefined)",
    "Ki, nM": 15
  },
  {
    "MOLECULE": "CN(C/C(=N\\OCCCNS(C)(=O)=O)C(CCN1CCC(N2CCCCC2=O)CC1)c1ccc(Cl)c(Cl)c1)C(=O)c1cc(Cl)cc(Cl)c1 (centres undefined)",
    "Ki, nM": 1.2
  },
  {
    "MOLECULE": "COCCO/N=C(\\CN(C)C(=O)c1cc(Cl)cc(Cl)c1)C(CCN1CCC(N2CCCCC2=O)CC1)c1ccc(Cl)c(Cl)c1 (centres undefined)",
    "Ki, nM": 2.4
  },
  {
    "MOLECULE": "CNC(=O)CO/N=C(\\COCc1cc(C(F)(F)F)cc(C(F)(F)F)c1)C(CCN1CCC(O)(c2ccccc2)CC1)c1ccc(Cl)c(Cl)c1 (centres undefined)",
    "Ki, nM": 24
  },
  {
    "MOLECULE": "COCCO/N=C(\\COCc1cc(C(F)(F)F)cc(C(F)(F)F)c1)C(CCN1CCC(O)(c2ccccc2)CC1)c1ccc(Cl)c(Cl)c1 (centres undefined)",
    "Ki, nM": 7
  },
  {
    "MOLECULE": "CNC(=O)NCCCO/N=C(\\CN(C)C(=O)c1cc(Cl)cc(Cl)c1)C(CCN1CCC(N2CCCCC2=O)CC1)c1ccc(Cl)c(Cl)c1 (centres undefined)",
    "Ki, nM": 1
  },
  {
    "MOLECULE": "O=C(COCc1cc(C(F)(F)F)cc(C(F)(F)F)c1)C(CCN1CCC(O)(c2ccccc2)CC1)c1ccc(Cl)c(Cl)c1 (centres undefined)",
    "Ki, nM": 15
  },
  {
    "MOLECULE": "CN(C/C(=N\\OCF)C(CCN1CCC(N2CCCCC2=O)CC1)c1ccc(Cl)c(Cl)c1)C(=O)c1cc(Cl)cc(Cl)c1 (centres undefined)",
    "Ki, nM": 0.8
  },
  {
    "MOLECULE": "CN(C/C(=N\\OCc1c[nH]cn1)C(CCN1CCC(N2CCCCC2=O)CC1)c1ccc(Cl)c(Cl)c1)C(=O)c1cc(Cl)cc(Cl)c1 (centres undefined)",
    "Ki, nM": 2.2
  },
  {
    "MOLECULE": "CN(C/C(=N\\OCCO)C(CCN1CCC(N2CCCCC2=O)CC1)c1ccc(Cl)c(Cl)c1)C(=O)c1cc(Cl)cc(Cl)c1 (centres undefined)",
    "Ki, nM": 0.6
  },
  {
    "MOLECULE": "CN(C/C(=N\\OCCN1CCNCC1)C(CCN1CCC(N2CCCCC2=O)CC1)c1ccc(Cl)c(Cl)c1)C(=O)c1cc(Cl)cc(Cl)c1 (centres undefined)",
    "Ki, nM": 0.5
  },
  {
    "MOLECULE": "O=C(O)CO/N=C(\\COCc1cc(C(F)(F)F)cc(C(F)(F)F)c1)C(CCN1CCC(O)(c2ccccc2)CC1)c1ccc(Cl)c(Cl)c1 (centres undefined)",
    "Ki, nM": 8
  }
]
